Form field: ΔTm (one value per entry).
- Test system: Quadruplex DNA
- assay-summary: Binding affinity to G-quadruplex telomeric DNA FMycT (5'-duplex GGG TTAGGG TTAGGG TTAGGG-3') (unknown origin) assessed as stabilization by measuring change in melting temperature at 10 uM in potassium buffer by FRET melting assay
- Assay type: nucleic-acid assay
outcome-measure: ΔTm (°C)

# compound, data-value
records = [
    ("C[n+]1cccc2c(N3C(=O)c4ccc5c6c(ccc(c46)C3=O)C(=O)N(c3cccc4c3ccc[n+]4C)C5=O)cccc21", 0.6),
    ("C[n+]1cccc2cc(N3C(=O)c4ccc5c6c(ccc(c46)C3=O)C(=O)N(c3ccc4c(ccc[n+]4C)c3)C5=O)ccc21", 11),
    ("CN1CCN(c2ccc(N3C(=O)c4ccc5c6c(ccc(c46)C3=O)C(=O)N(c3ccc(N4CCN(C)CC4)cc3)C5=O)cc2)CC1", 1.8),
    ("C[n+]1cc(N2C(=O)c3ccc4c5c(ccc(c35)C2=O)C(=O)N(c2cc3ccccc3[n+](C)c2)C4=O)cc2ccccc21", 1.2),
    ("C[n+]1cccc(N2C(=O)c3ccc4c5c(ccc(c35)C2=O)C(=O)N(c2ccc[n+](C)c2)C4=O)c1", -1.6),
    ("C[n+]1ccc(CN2C(=O)c3ccc4c5c(ccc(c35)C2=O)C(=O)N(Cc2cc[n+](C)cc2)C4=O)cc1", 20.1),
    ("CC(CN1C(=O)c2ccc3c4c(ccc(c24)C1=O)C(=O)N(CC(C)N1CCN(C)CC1)C3=O)N1CCN(C)CC1 (centres undefined)", 13.2),
    ("CC(CCN1C(=O)c2ccc3c4c(ccc(c24)C1=O)C(=O)N(CCC(C)N1CCN(C)CC1)C3=O)N1CCN(C)CC1 (centres undefined)", 22),
    ("O=C1c2ccc3c4c(ccc(c24)C(=O)N1CCCN1CCOCC1)C(=O)N(CCCN1CCOCC1)C3=O", 2),
]

* * *

Form field: log10 IC50 at 72 h (one value per entry).
- assay-summary: Cytotoxicity against human MRC5 cells assessed as inhibition of cell proliferation incubated for 72 hrs by alamar blue assay
- Type: toxicity, cell-based
- run-parameters: human, MRC5 cells
outcome-measure: log10 IC50 at 72 h (log10 of the value in µM)

# molecule, log10 IC50 at 72 h
data = [
    ("O=C1c2ccc3c4c(ccc(c24)C(=O)N1c1ccccc1N1CCOCC1)C(=O)N(c1ccccc1N1CCOCC1)C3=O", 0.86),
    ("CN1CCN(CCCN2C(=O)c3ccc4c5c(ccc(c35)C2=O)C(=O)N(CCCN2CCN(C)CC2)C4=O)CC1", 0.59),
    ("C[n+]1cc(N2C(=O)c3ccc4c5c(ccc(c35)C2=O)C(=O)N(c2cc3ccccc3[n+](C)c2)C4=O)cc2ccccc21", 0.53),
    ("CC(CN1C(=O)c2ccc3c4c(ccc(c24)C1=O)C(=O)N(CC(C)N1CCN(C)CC1)C3=O)N1CCN(C)CC1 (stereo not given)", 0.15),
    ("CC(CCN1C(=O)c2ccc3c4c(ccc(c24)C1=O)C(=O)N(CCC(C)N1CCN(C)CC1)C3=O)N1CCN(C)CC1 (stereo not given)", 0.09),
    ("C[n+]1ccc(CN2C(=O)c3ccc4c5c(ccc(c35)C2=O)C(=O)N(Cc2cc[n+](C)cc2)C4=O)cc1", -0.31),
    ("C[n+]1cccc(N2C(=O)c3ccc4c5c(ccc(c35)C2=O)C(=O)N(c2ccc[n+](C)c2)C4=O)c1", 1.26),
    ("O=C1c2ccc3c4c(ccc(c24)C(=O)N1CC(c1ccccn1)N1CCOCC1)C(=O)N(CC(c1ccccn1)N1CCOCC1)C3=O (stereo not given)", 1.92),
    ("CN1CCN(C(C)(C)CN2C(=O)c3ccc4c5c(ccc(c35)C2=O)C(=O)N(CC(C)(C)N2CCN(C)CC2)C4=O)CC1", 0.53),
    ("C[n+]1cccc2cc(N3C(=O)c4ccc5c6c(ccc(c46)C3=O)C(=O)N(c3ccc4c(ccc[n+]4C)c3)C5=O)ccc21", 0.06),
    ("O=C1c2ccc3c4c(ccc(c24)C(=O)N1CCCN1CCOCC1)C(=O)N(CCCN1CCOCC1)C3=O", 1.08),
    ("CN1CCN(CC2(CN3C(=O)c4ccc5c6c(ccc(c46)C3=O)C(=O)N(CC3(CN4CCN(C)CC4)CC3)C5=O)CC2)CC1", 0.18),
    ("CN1CCN(c2cccc(N3C(=O)c4ccc5c6c(ccc(c46)C3=O)C(=O)N(c3cccc(N4CCN(C)CC4)c3)C5=O)c2)CC1", 0.17),
    ("CN1CCN(c2ccccc2N2C(=O)c3ccc4c5c(ccc(c35)C2=O)C(=O)N(c2ccccc2N2CCN(C)CC2)C4=O)CC1", 0.18),
]
